The origin of these recorded values is patent US11254686B1.

Please go through the items and note down their pIC50.
Target: adenosine A2A receptor (Homo sapiens (Human))
Sequence (P29274 whole entry): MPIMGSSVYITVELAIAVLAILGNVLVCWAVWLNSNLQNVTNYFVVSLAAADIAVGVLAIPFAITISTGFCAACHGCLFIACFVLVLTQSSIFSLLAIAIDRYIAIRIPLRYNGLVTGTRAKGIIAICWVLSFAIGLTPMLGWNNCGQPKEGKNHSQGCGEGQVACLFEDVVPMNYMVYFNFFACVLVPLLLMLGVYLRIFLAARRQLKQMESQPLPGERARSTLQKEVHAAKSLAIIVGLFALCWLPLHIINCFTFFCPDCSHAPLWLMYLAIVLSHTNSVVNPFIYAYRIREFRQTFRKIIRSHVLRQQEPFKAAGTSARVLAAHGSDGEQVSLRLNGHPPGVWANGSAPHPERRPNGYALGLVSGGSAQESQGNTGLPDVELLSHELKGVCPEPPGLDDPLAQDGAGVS
Assay: Adenosine receptor activity assay (Table 1), A2A activity
Assay type: biochemical
Details: read-out: Ave A2A cAMP IC50
pIC50: −log10 of the molar value.

Req: So what's the measured pIC50 for this one? COC[C@@H]1CCN(C(=O)c2nc(N[C@@H](C)c3ccccn3)nc3ccsc23)C1
Resp: 6.30 to 7.00

Req: Requested field: pIC50. Item: C[C@H](Nc1nc(C(=O)N2CC[C@@H](O)C2)c2sccc2n1)c1cncc(F)c1
Resp: < 6.30

Req: What measured pIC50 goes with CC(=O)N1CC(CCNC(=O)c2nc(N[C@@H](C)c3cncc(F)c3)nc3ccsc23)C1 ?
Resp: 6.30 to 7.00

Req: Entry under review: C[C@H](Nc1nc(C(=O)NCc2cncc(C(F)(F)F)c2)c2sccc2n1)c1ccccn1 . Reported pIC50?
Resp: 6.30 to 7.00

Req: Find the recorded pIC50 belonging to COC[C@@H](Nc1nc(C(=O)NC[C@H](C)O)c2sccc2n1)c1cccnc1 and report it.
Resp: 6.30 to 7.00

Req: Quick check: pIC50 of Cc1cc2nc(N[C@@H](C)c3cncc(F)c3)nc(C(=O)NCCC3CN(C(=O)OC(C)(C)C)C3)c2s1 ?
Resp: 6.30 to 7.00

Req: Quick one: pIC50 of O=C(c1nc(NCc2cncc(F)c2)nc2ccsc12)N1CC(F)(F)C1 ?
Resp: < 6.30

Req: Which pIC50 value is on record for Cc1cc2nc(N[C@@H](C)c3cncc(F)c3)nc(C(=O)NCC(F)(F)F)c2s1 ?
Resp: 7.30 to 8.00

* * *

Molecular target: adenosine A2B receptor (Homo sapiens (Human), UniProt P29275)
Sequence (P29275 whole entry): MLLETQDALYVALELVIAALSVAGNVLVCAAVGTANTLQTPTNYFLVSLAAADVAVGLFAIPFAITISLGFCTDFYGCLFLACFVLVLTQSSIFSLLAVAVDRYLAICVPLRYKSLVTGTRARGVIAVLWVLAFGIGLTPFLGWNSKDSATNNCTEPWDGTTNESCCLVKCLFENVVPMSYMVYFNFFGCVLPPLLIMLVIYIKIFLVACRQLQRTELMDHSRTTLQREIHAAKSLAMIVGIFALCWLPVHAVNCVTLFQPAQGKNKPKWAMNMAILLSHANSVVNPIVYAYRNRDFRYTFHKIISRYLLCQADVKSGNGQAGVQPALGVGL
Assay: Adenosine receptor activity assay (Table 1), A2B activity
Type: biochemical
Conditions: A2A activity to A2B activity (A2A/A2B)
I'd appreciate it if you could label each record using Ratio and these ranges: bucket A (below 4), bucket B (4 to below 10), bucket C (10 or more)

Req: Determine which band this molecule sits in: CC(C)(C)OC(=O)N[C@H]1CCN(C(=O)c2nc(NCc3cncc(F)c3)nc3ccsc23)C1 [Example Z245]
Resp: bucket A

Req: Lab note: which band did C[C@H](Nc1nc(C(=O)N2CC[C@@H](N)C2)c2sccc2n1)c1cccnc1 [Example Z366] land in?
Resp: bucket A

Req: Classify this molecule: O=C(NCCO)c1nc(NCc2cncc(F)c2)nc2ccsc12 [Example Z123]
Resp: bucket C

Req: Using the reported Ratio, which band applies to O=C(c1nc(NCc2cnccn2)nc2ccsc12)N1CC[C@H](O)C1 [Example Z156] ?
Resp: bucket C

Req: Classify this molecule: C[C@H](Nc1nc(C(=O)N2CCC[C@H]2C)c2sccc2n1)c1cncc(F)c1 [Example Z272]
Resp: bucket B

Req: Form field 'band' for CNc1cc2nc(NCc3ccccn3)nc(C(=O)N3CCCC3)c2s1 [Example Z160]
Resp: bucket C

Req: Given C[C@@H]1CCN(C(=O)c2nc(N[C@@H](C)c3cccnc3)nc3ccsc23)C1 [Example Z34] , name the class its Ratio places it in.
Resp: bucket B

Req: Bin? C[C@H](Nc1nc(C(=O)NCCO)c2sc(N)cc2n1)c1ccccn1 [Example Z209]
Resp: bucket C

Req: Hey, which category is COc1ccc(CNC(=O)c2nc(NCc3ccc(OC)nc3)nc3ccsc23)cn1 [Example Z12] in, do you know?
Resp: bucket A

Req: Pick a category. Item: C[C@H](Nc1nc(C(=O)N2CC[C@H](CO)C2)c2sccc2n1)c1cncc(F)c1 [Example Z294]
Resp: bucket C

Req: Categorize the following entry: C[C@H](Nc1nc(C(=O)N2CC[C@H](NC(=O)OC(C)(C)C)C2)c2sccc2n1)c1ccccn1 [Example Z315]
Resp: bucket A

Req: Which category fits this record: C[C@H](Nc1nc(C(=O)N2CC3(COC3)C2)c2sccc2n1)c1cccnc1 [Example Z14]
Resp: bucket A

Req: Into which category would you place Cc1cc2nc(N[C@@H](C)c3cccnc3)nc(C(=O)NCC3CCNCC3)c2s1 [Example Z377] ?
Resp: bucket C

Req: # bin label for CCC(Nc1nc(C(=O)N2CC[C@@H](OC)C2)c2sccc2n1)c1cccnc1 (stereo partly shown) [Example Z26]
Resp: bucket A

Req: Which bin, given its Ratio, does CCc1cc2nc(N[C@@H](C)c3cccnc3)nc(C(=O)N3CCCC3)c2s1 [Example Z214] occupy?
Resp: bucket B

Req: Hey, which category is C[C@H](Nc1nc(C(=O)NC2CC2)c2sccc2n1)c1ccccn1 [Example Z192] in, do you know?
Resp: bucket B

Req: Determine which band this molecule sits in: COc1ccc(CNC(=O)c2nc(NCc3cncc(C)c3)nc3ccsc23)cn1 [Example Z57]
Resp: bucket A

Req: Which band does C[C@H](Nc1nc(C(=O)N2CC[C@@H](F)C2)c2sccc2n1)c1ccccn1 [Example Z52] fall in?
Resp: bucket B

Req: Determine which band this molecule sits in: CO[C@H]1CCN(C(=O)c2nc(N[C@@H](C)c3cncc(Cl)c3)nc3ccsc23)C1 [Example Z254]
Resp: bucket B

Req: Where would C[C@H](Nc1nc(C(=O)N[C@H]2C[C@H](O)C2)c2sccc2n1)c1cncc(Cl)c1 [Example Z306] land among the classes by reported Ratio?
Resp: bucket C

Req: Which band does CO[C@H]1CCN(C(=O)c2nc(N[C@@H](C)c3cncc(F)c3)nc3ccsc23)C1 [Example Z252] fall in?
Resp: bucket C

Req: Using the reported Ratio, which band applies to CC(CNC(=O)c1nc(N[C@@H](C)c2ccccn2)nc2ccsc12)Oc1cccnc1 (stereo partly shown) [Example Z77] ?
Resp: bucket A

Req: Hi, small favor: classify C[C@H](Nc1nc(C(=O)NCc2cncc(C#N)c2)c2sccc2n1)c1ccccn1 [Example Z102] by its Ratio when you get a moment.
Resp: bucket A

Req: Assign a bin to CC(=O)N[C@@H]1CCN(C(=O)c2nc(N[C@@H](C)c3cncc(F)c3)nc3ccsc23)C1 [Example Z319]
Resp: bucket C

Req: Form: Item = C[C@H](Nc1nc(C(=O)NCc2cncc(F)c2)c2sccc2n1)c1cccnc1 [Example Z20] ; Class = ?
Resp: bucket A

Req: Please report the category associated with COc1cncc(CNc2nc(C(=O)N3CC(C)C3)c3sccc3n2)c1 [Example Z117] , nothing else.
Resp: bucket C

Req: Category of CC(C)(C)OC(=O)N1CCN(C(=O)c2nc(NCc3cncc(F)c3)nc3ccsc23)C1 [Example Z135] :
Resp: bucket A

Req: Determine which band this molecule sits in: C[C@@H](O)CNC(=O)c1nc(NCc2cncc(C(F)(F)F)c2)nc2ccsc12 [Example Z266]
Resp: bucket C

Req: Which bin, given its Ratio, does COc1cncc(CNC(=O)c2nc(N[C@@H](C)c3ccccn3)nc3ccsc23)c1 [Example Z110] occupy?
Resp: bucket A

Req: Which bin, given its Ratio, does Nc1cc2nc(NCc3cccnc3)nc(C(=O)N3CCCC3)c2s1 [Example Z186] occupy?
Resp: bucket C

Req: Each molecule maps to one class by Ratio. Which class for O=C(c1nc(NCc2cncc(F)c2)nc2ccsc12)N1CC[C@@H](O)C1 [Example Z66] ?
Resp: bucket C

Req: State the band of CN(C(=O)c1nc(NCc2cncc(F)c2)nc2ccsc12)C1CCC(C)(C)C1 (stereo not shown) [Example Z22]
Resp: bucket B

Req: Please report the category associated with C[C@H](Nc1nc(C(=O)N2CCCC2)c2sccc2n1)c1ccccn1 [Example Z10] , nothing else.
Resp: bucket B

* * *

Biological target: UniProt P29275
Test: Adenosine receptor activity assay (Table 1), A2B activity
Format: biochemical
Settings: read-out: Ave A2B cAMP IC50
observable: IC50

Req: Give IC50 (UniProt P29275) of the following compound: COC1CN(C(=O)c2nc(N[C@@H](C)c3cccnc3)nc3cc(C)sc23)C1 [Example Z286]
Resp: < 10 nM

Req: Quick check: IC50 on UniProt P29275, item C[C@H](Nc1nc(C(=O)N2CC(CNC(=O)C(C)(C)C)C2)c2sccc2n1)c1cncc(F)c1 [Example Z529] ?
Resp: 10 to 50 nM

Req: Entry Cc1cc2nc(N[C@@H](C)c3cncc(F)c3)nc(C(=O)N3CC(NC(=O)OCC(C)(C)C)C3)c2s1 [Example Z591] , system UniProt P29275: what IC50 was measured?
Resp: 10 to 50 nM

Req: Could you share what IC50 was measured for C[C@H](Nc1nc(C(=O)NCCNS(C)(=O)=O)c2sccc2n1)c1cncc(F)c1 [Example Z538] , tested on UniProt P29275?
Resp: 10 to 50 nM

Req: Can you look up IC50 on UniProt P29275 for C[C@H](Nc1nc(C(=O)N2CC[C@H](O)C2)c2sccc2n1)c1cncc(Cl)c1 [Example Z236] ?
Resp: 10 to 50 nM

Req: Any idea what IC50 came out for CNc1cc2nc(N[C@@H](C)c3cncc(F)c3)nc(C(=O)N3CC[C@H](O)C3)c2s1 [Example Z197] on UniProt P29275?
Resp: < 10 nM

Req: Observed IC50 on UniProt P29275 for C[C@H](Nc1nc(C(=O)N2CC(CN(C)C(=O)OC(C)(C)C)C2)c2sccc2n1)c1cncc(F)c1 [Example Z525] , please.
Resp: 50 to 100 nM

Req: Form: Entry = Cc1cc2nc(N[C@@H](C)c3ccccn3)nc(C(=O)N3CC[C@@H](O)C3)c2s1 [Example Z298] | System = UniProt P29275 | IC50 = ____
Resp: < 10 nM
